Value source: patent US20250288589A1

Biological target: full-length human PIKFYVE (Homo sapiens, UniProt Q9Y2I7, L932S/Q1183K/Q995L/S1033A/S696N/T998S)
Construct: A full-length human PIKFYVE [1-2098(end) amino acids and S696N, L932S, Q995L, T998S, S1033A and Q1183K; purchased Carna Biosciences; host or cells: baculovirus expression system
Sequence (Q9Y2I7 whole entry S696N/L932S/Q995L/T998S/S1033A/Q1183K): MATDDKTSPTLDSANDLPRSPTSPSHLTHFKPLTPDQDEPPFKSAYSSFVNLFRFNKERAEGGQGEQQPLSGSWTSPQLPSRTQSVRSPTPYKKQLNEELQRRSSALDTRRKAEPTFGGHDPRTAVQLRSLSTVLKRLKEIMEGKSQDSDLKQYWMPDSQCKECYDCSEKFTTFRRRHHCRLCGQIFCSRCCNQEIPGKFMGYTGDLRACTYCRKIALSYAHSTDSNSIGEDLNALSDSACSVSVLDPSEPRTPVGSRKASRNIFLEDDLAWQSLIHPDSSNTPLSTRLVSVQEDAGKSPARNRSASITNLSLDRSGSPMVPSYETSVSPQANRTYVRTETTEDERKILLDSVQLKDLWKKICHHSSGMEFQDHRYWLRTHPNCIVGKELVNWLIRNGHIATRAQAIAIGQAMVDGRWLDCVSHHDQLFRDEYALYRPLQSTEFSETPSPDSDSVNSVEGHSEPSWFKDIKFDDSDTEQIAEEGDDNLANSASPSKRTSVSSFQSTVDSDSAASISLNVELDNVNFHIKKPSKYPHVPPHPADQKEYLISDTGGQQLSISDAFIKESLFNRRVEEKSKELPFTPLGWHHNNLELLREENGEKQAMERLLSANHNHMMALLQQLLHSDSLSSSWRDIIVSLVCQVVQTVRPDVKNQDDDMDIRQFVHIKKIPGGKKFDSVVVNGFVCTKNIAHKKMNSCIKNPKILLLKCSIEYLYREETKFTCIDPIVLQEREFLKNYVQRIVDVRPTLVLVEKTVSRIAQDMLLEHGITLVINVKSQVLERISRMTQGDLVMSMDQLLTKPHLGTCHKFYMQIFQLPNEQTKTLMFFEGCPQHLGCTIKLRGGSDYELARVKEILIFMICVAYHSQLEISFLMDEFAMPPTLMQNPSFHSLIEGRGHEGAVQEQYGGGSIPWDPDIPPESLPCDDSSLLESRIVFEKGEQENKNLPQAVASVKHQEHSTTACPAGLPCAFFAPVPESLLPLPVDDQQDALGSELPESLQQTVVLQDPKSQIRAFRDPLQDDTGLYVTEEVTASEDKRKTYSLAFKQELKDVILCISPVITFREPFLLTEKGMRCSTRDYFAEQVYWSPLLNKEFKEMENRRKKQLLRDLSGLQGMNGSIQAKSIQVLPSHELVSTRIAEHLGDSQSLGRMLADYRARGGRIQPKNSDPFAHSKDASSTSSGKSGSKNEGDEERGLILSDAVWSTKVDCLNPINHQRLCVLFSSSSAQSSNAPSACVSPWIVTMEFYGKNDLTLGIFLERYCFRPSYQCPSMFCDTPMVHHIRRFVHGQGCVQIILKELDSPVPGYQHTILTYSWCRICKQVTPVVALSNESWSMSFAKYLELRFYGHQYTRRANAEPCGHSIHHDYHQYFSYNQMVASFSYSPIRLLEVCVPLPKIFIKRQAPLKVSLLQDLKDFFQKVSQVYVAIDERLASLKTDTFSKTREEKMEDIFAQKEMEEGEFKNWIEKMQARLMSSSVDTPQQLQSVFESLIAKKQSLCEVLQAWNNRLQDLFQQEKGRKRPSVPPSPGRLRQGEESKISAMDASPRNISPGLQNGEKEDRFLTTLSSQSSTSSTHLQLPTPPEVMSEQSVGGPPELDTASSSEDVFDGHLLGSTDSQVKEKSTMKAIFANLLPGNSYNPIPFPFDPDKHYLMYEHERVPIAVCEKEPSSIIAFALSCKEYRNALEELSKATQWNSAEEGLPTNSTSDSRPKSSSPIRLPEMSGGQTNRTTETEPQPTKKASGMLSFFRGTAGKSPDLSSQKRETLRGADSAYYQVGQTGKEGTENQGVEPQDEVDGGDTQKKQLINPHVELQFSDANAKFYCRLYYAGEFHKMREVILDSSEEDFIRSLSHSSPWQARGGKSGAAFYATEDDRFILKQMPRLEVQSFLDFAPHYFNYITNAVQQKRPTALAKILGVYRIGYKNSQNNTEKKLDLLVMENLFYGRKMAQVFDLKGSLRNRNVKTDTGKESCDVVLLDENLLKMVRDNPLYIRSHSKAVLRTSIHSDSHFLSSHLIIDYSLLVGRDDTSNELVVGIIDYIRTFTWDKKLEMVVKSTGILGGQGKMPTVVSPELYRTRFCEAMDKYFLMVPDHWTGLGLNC
Test: PIKfyve biochemical assay (ADP-Glo Kinase assay, Carna Biosciences)
Settings: GST-PIKFYVE, 10 μM to 3 nM in duplicate, read-out: hPIKfyve IC50
IC50 listing for selected compounds.

[[record]]
mol_smiles = "c1cnc2c(N3CCOCC3)nc(-c3n[nH]c4ccccc34)nc2c1"
observed = "1000 to 10000 nM"

[[record]]
mol_smiles = "COc1cccc(-c2cnn(-c3nc(N4CCOCC4)c4ncc(CO)cc4n3)c2)c1"
observed = "< 10 nM"

[[record]]
mol_smiles = "COc1cccc(-c2ccn(-c3nc(N4CCOCC4)c4ncc(C5=CCOCC5)cc4n3)n2)c1"
observed = "< 10 nM"


Now turn to the next compound.
Would you mind telling me what IC50 value was observed for `c1ccc(-c2ccn(-c3nc(N4CCOCC4)c4ncc(C5CCNCC5)cc4n3)n2)cc1` ?
10 to 100 nM

* * *

Target: full-length human PIKFYVE (Homo sapiens, UniProt Q9Y2I7, L932S/Q1183K/Q995L/S1033A/S696N/T998S)
Construct: A full-length human PIKFYVE [1-2098(end) amino acids and S696N, L932S, Q995L, T998S, S1033A and Q1183K
Assay: PIKfyve biochemical assay (ADP-Glo Kinase assay, Carna Biosciences)
Conditions: GST-PIKFYVE, 10 μM to 3 nM in duplicate, read-out: hPIKfyve IC50
IC50 listing for selected compounds.

Solved entries (count: 5):
[[record]]
mol_smiles = "O=c1[nH]c(-c2ccccc2)nn1-c1nc(N2CCOCC2)c2ncccc2n1"
property_name = "IC50"
observed = "100 to 1000 nM"

[[record]]
mol_smiles = "c1cncc(-c2ccn(-c3nc(N4CCOCC4)c4ncccc4n3)n2)c1"
property_name = "IC50"
observed = "1000 to 10000 nM"

[[record]]
mol_smiles = "COc1ccc(Cc2ccn(-c3nc(N4CCOCC4)c4ncc(C5=CCOCC5)cc4n3)n2)cc1"
property_name = "IC50"
observed = "100 to 1000 nM"

[[record]]
mol_smiles = "c1ccc(-c2nccc(-c3nc(N4CCOCC4)c4ncccc4n3)n2)cc1"
property_name = "IC50"
observed = "10 to 100 nM"

[[record]]
mol_smiles = "c1cc(Oc2nc(N3CCOCC3)c3ncccc3n2)cc(-c2cn[nH]c2)c1"
property_name = "IC50"
observed = "> 10000 nM"


Would you mind telling me what IC50 value was observed for `c1ccc(-c2nccc(-c3nc(N4CCOCC4)c4ncc(N5CCOCC5)cc4n3)n2)cc1` ?
10 to 100 nM

Would you mind telling me what IC50 value was observed for `COC(=O)c1cnc2c(N3CCOCC3)nc(-n3cc(-c4cccc(OC)c4)cn3)nc2c1` ?
< 10 nM

Would you mind telling me what IC50 value was observed for `COc1cccc(-c2cnn(-c3nc(N4CCOCC4)c4ncc(C(=O)O)cc4n3)c2)c1` ?
10 to 100 nM

* * *

Target: full-length human PIKFYVE (Homo sapiens, UniProt Q9Y2I7, L932S/Q1183K/Q995L/S1033A/S696N/T998S)
Construct: A full-length human PIKFYVE [1-2098(end) amino acids and S696N, L932S, Q995L, T998S, S1033A and Q1183K
Experiment: PIKfyve biochemical assay (ADP-Glo Kinase assay, Carna Biosciences)
Conditions: GST-PIKFYVE, 10 μM to 3 nM in duplicate, read-out: hPIKfyve IC50
IC50 listing for selected compounds.

Solved entries (count: 5):
[[record]]
compound = "c1ccc(-c2nccc(-c3nc(N4CCOCC4)c4ncc(-c5ccncc5)cc4n3)n2)cc1 [Compound 104]"
observed = "< 10 nM"

[[record]]
compound = "c1cc(-c2ccn(-c3nc(N4CCOCC4)c4ncc(C5CCOCC5)cc4n3)n2)ncn1 [Compound 53]"
observed = "> 10000 nM"

[[record]]
compound = "c1cc(-c2nc(N3CCOCC3)c3ncccc3n2)nc(C2CCNCC2)c1 [Compound 92]"
observed = "1000 to 10000 nM"

[[record]]
compound = "c1ccc(-c2ccn(-c3nc(N4CCOCC4)c4ncccc4n3)n2)nc1 [Compound 12]"
observed = "100 to 1000 nM"

[[record]]
compound = "Oc1ccc(-c2ccccc2)nc1-c1nc(N2CCOCC2)c2ncccc2n1 [Compound 108]"
observed = "10 to 100 nM"


Would you mind telling me what IC50 value was observed for CC(C)c1ccn(-c2nc(N3CCOCC3)c3ncccc3n2)n1 [Compound 18] ?
> 10000 nM

Would you mind telling me what IC50 value was observed for Fc1ccccc1-c1ccn(-c2nc(N3CCOCC3)c3ncc(C4CCOCC4)cc3n2)n1 [Compound 19] ?
100 to 1000 nM

Would you mind telling me what IC50 value was observed for Cc1ccc2c(c1)nnn2-c1nc(N2CCOCC2)c2ncccc2n1 [Compound 76] ?
100 to 1000 nM

Would you mind telling me what IC50 value was observed for CC(C)(C)OC(=O)N1CCC=C(c2ccn(-c3nc(N4CCOCC4)c4ncccc4n3)n2)C1 [Compound 5] ?
> 10000 nM
